EXPERIMENTAL TARGET: CYP2D6 (Homo sapiens, UniProt P10635)
Sequence (P10635 whole entry): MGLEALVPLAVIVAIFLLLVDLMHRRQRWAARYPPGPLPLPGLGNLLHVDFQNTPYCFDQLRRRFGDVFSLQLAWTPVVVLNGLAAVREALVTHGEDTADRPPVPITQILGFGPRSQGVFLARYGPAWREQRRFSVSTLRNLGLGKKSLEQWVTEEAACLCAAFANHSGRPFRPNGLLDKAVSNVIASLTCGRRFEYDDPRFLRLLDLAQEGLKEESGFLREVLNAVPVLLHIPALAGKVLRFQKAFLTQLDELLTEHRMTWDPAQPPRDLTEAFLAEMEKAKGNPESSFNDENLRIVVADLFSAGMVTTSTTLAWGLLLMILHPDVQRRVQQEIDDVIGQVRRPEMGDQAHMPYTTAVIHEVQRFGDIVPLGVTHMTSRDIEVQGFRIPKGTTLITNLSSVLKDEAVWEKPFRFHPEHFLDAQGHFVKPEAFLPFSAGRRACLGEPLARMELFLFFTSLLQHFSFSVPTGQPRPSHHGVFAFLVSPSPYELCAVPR
MEASUREMENT NOTES: Inhibition of recombinant human CYP2D6 expressed in baculosomes assessed as residual activity at 10 uM using vivid EOMCC/MOBFC as substrate after 15 mins in presence of NADPH by fluorescence assay relative to control
Type: ADME
EXPERIMENTAL SETUP: probe Vivid EOMCC/MOBFC, read-out: Activity
RECORDED ENDPOINT: activity at 0.25 h, 10 µM (%)
Answers are plain numbers, in %.

Some compounds with known activity at 0.25 h, 10 µM results, for comparison:
>>> df
                           structure_smiles                    experimental_target          recorded_endpoint  experimental_value
0  CC(C)c1cc(CN2Cc3ccccc3S2(=O)=O)nn1C(C)(C)C  CYP2D6 (Homo sapiens, UniProt P10635)  activity at 0.25 h, 10 µM                78.8
1  CC(C)c1cc(CN2Cc3ccccc3S2(=O)=O)nn1-c1ccccc1  CYP2D6 (Homo sapiens, UniProt P10635)  activity at 0.25 h, 10 µM                86.6
2  CC(C)c1cc(CN2Cc3ccccc3S2(=O)=O)nn1-c1ccc(F)cc1  CYP2D6 (Homo sapiens, UniProt P10635)  activity at 0.25 h, 10 µM                90.6

Shift focus to the following entry.
Please look at this compound and report its activity at 0.25 h, 10 µM: `Cc1c(CNS(=O)(=O)c2ccccc2)nn(-c2ccccc2)c1CC(C)C`
45.2

// data source = ChEMBL document CHEMBL4052773
